Test system: PPARg:RXRa 270nM:90nM, anti-RXR (NR concentration 270 nM, RXRa partner concentration 90 nM)
Test: PBM binding z-score (relative to random genomic background probes); higher = stronger binding; sequences stand for … in GC…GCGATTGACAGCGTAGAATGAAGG
measurement kind: PBM binding z-score

Some solved cases for reference:
>  <sequence text>
GCTAGCAGGCCATTTTGGTCACTCAATGACGGGC

>  <measurement kind>
PBM binding z-score

>  <measurement>
-0.925

$$$$
>  <sequence text>
CGTGCTAGGTCAATGGTCAGCTAAAGCAGCTCGC

>  <measurement kind>
PBM binding z-score

>  <measurement>
5.55

$$$$
>  <sequence text>
GTACCAGGGTGAATAGGTCGTTGATGAGTAGGCG

>  <measurement kind>
PBM binding z-score

>  <measurement>
1.61

$$$$
>  <sequence text>
CAAACTAGGTCACGAAAGGTCATAGTCGAATGAC

>  <measurement kind>
PBM binding z-score

>  <measurement>
8.43

$$$$
>  <sequence text>
AGAATGAGGTTATACGGAGATCAGGGAAGAAAGT

>  <measurement kind>
PBM binding z-score

>  <measurement>
2.04

$$$$
>  <sequence text>
AGTCAAAGTTCATCTAGGGAACGTAAGATATGCT

>  <measurement kind>
PBM binding z-score

>  <measurement>
6.34

$$$$
>  <sequence text>
AATACAGGCTCACTAGGCCAGAGTAGGTACGAAT

>  <measurement kind>
PBM binding z-score

>  <measurement>
0.176

$$$$
>  <sequence text>
CCTAGCACGCCAGGGTCACTCAAGCATTTCGCTT

>  <measurement kind>
PBM binding z-score

>  <measurement>
0.763

$$$$

I need PBM binding z-score for every entry listed below, if you could help.
1. ACTCGGAGAACAAAGGTCAGAGCTACGCCAGTGA
2. TGTCAAAGTTCAAAGGTAACGTGAGTATCCACAC
3. GCTAGTTGGTCAGTAAAGGGTCACACACCGGTCG
4. AGTCAAAGTTCAGGACGAGGTAGCGTAAAGCACG
5. CCTGCTAGGTCAATAGTCAGCTAAAGCAGCTCGC
6. GCTACTAGGTCAGGTTGGTCAGCTAACGGGTACG
7. CCTTACGGGTCACCGACAGGTTATAGCATTTGGA
8. CCTACTGGGCCAAAAAAGTCATTGATGCCGATAA

1. 5.81
2. 7.93
3. 2.79
4. 4.86
5. 2.95
6. 3.52
7. 5.64
8. 0.686

Would you mind giving PBM binding z-score for every sequence in the list below?
1. CCAACTGGGGCAAGGTTACCATAACGCACAGCCA
2. ATCTCTAGTTAACAAGTTCAGTGAAAGAGAGGAC
3. CAAACTAGGTCTAAGGTCAAAGTCGAGCCAACCA
4. GGAACGAGGGCAAAGTTGATAGAATCTGTCGACG
5. ATATGTAGGTTATCGGGTCATTCCGTTTGCGCAT
6. GATACAGGGTCAAGGCCAGAGTCCGCGTATTGAT
7. TTATATAGGTAAAAGGTGAAAGTCGGTGTGGTAA
8. ATCTCTAGTTAAAGTTCAGTGAAAGATCGATAGA

1. 4.62
2. 0.54
3. 9.19
4. 7.15
5. 5.92
6. 5.31
7. 9.28
8. 3.2

For every listed record, write down its PBM binding z-score.
1. CCGACTGGGGCAGAAAGGTTACCACACCATCCGG
2. TCTTGTAGATCAGCAGGTTAATAAAGCTGGCCAA

[2.66, 1.38]

====

System: RARa homodimer (NR concentration 270 nM)
Assay: PBM binding z-score (relative to random genomic background probes); higher = stronger binding; sequences stand for … in GC…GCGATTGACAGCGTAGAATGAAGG
Class (by PBM binding z-score) -- bin A (below -0.6), bin B (-0.6 to below 0.6), bin C (0.6 or more)

>  <sequence text>
ACTAGCATGCCAAGTTTGGGTCACTCAAACAAAG

>  <label class>
bin B

$$$$

Each sequence maps to one class by PBM binding z-score. Which class for `CCTAACAGGCCAATCTGGGTCACTCAAGGCTTGA` ?
bin B

Hi there! Could you help me figure out the category for `ATCTCTAGGTAAGACTCAGGTCAGTGAAGAACGC` please?
bin C

Sort `ATCTCAAGGTAAGACTCAGTTCAGTGAAGAACGC` into one of the categories.
bin C

In plain terms, what class is `AATACAGGGTCATCGTAGGCCAGAGTCCGCACAG` ?
bin C

Which PBM binding z-score category applies to `CGTCCAAGGTCAATGCTAGGTCAGTGTAAGCATT` here?
bin C

Determine which band this sequence sits in: `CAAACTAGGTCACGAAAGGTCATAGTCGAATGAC`
bin C

Exam item: assign `GCAGGCAGGTGAAACGCAGGTAACTCAGGGTGGC` to the correct category.
bin A

Entry `GATACAGGGTCAAGGCCGGAGTACGCGTATTGAT` belongs to which category?
bin B

Any idea which band `GGAACGAGGGCACAGTTGATAGCATCTGTCGACG` is in?
bin B

Could you tell me which band `TCATATAGGTAAACTGGTGAAAGTCCGTAAGTTA` belongs to?
bin C

For `CGTCCACGGTCAAAGGTCAGTGAAGAGATGACGG` , which PBM binding z-score bin applies?
bin C

Kindly state the category for this sequence: `TCTTGTAAATCAAAGGTTAAGAAAGCCGAAGCCT`
bin C

Which of the defined bands does the recorded PBM binding z-score of `CGTCCAAGGTCATAGGAGGTCGGTGAAGACAGAT` sit within?
bin C

Class (by measured PBM binding z-score) for `TGAATGAAGTTATAAGATCAGGGAACGTTGCAAA`
bin B

Into which category would you place `GCTAGCAGGCCATTTGGGTTACTCAATGACGGGC` ?
bin A

Assign a category based on measured PBM binding z-score for `GCTGCTAGGTCTACTGATGGTCAGCTAAAGCTCG` and give only the class name.
bin A

Class (by measured PBM binding z-score) for `CGAACGAGGGCATGCGTTGATAGCAAATGCCGAT`
bin B

Any idea which band `TCGAGCAGGTTACCAATGGGGCATTCAGCTTTCT` is in?
bin A

Which category does the recorded PBM binding z-score put `CCTGCTAGGGCAATGGTCAGCTAAAGCAGCTCGC` in?
bin A

Note: place this sequence into its band. Item: `AGAACGAGGGCACCCTGAGTTGATAGCAGAGTAG`
bin A

Which category fits this record: `CCTCGGAGGCCAGAAGGTCAGAGCTGTCCGCTTT`
bin B

The entry to classify is `ATATGTAGGTTAGCTGGGGTCATTGAGACTAGGC` ; which class holds it?
bin C

Quick check: band for `TCTTGTAGAGCAAGCAGGTTAAGAAAGCCTGAGT`
bin A

Textbook exercise: identify the category of the sequence given here, `CCTAGCAGGCCAGGGTCACTCTAGCATTTCGCTT` , according to its measured value.
bin B

Which class holds `CTAACTAGGTCAAAGGTCAAAGTCGAGCCAACCA` ?
bin C

====

System: LXRb:RXRa (NR concentration 270 nM, RXRa partner concentration 90 nM)
Experiment: PBM binding z-score (relative to random genomic background probes); higher = stronger binding; sequences stand for … in GC…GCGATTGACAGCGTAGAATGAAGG
Field: PBM binding z-score. Provide a value for each of the sequences that follow.
Give bare numbers.

Sample answers from the record:
>  <sequence text>
GTTTACGGGTCAAAGGTTATAGCATGAATAGAAT

>  <PBM binding z-score>
6

$$$$
>  <sequence text>
CCTACTGGGCCAAAAACGTCATTGATGCCGATAA

>  <PBM binding z-score>
-0.357

$$$$
>  <sequence text>
ACAGACAGGTGAGTGAAGGTAACTCCGCTGGACG

>  <PBM binding z-score>
-0.498

$$$$
>  <sequence text>
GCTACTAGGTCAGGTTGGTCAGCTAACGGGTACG

>  <PBM binding z-score>
0.809

$$$$
>  <sequence text>
AGAACGAGGACAATGAGTTGATAGCACGGGTGGC

>  <PBM binding z-score>
-0.706

$$$$
>  <sequence text>
TCCAGTTGGTCAAAGGTCACACACTCGAAATGCG

>  <PBM binding z-score>
5.42

$$$$
>  <sequence text>
TCTTGTAGATCAAGCAGGTTAAGCAAGCCTGAGT

>  <PBM binding z-score>
0.104

$$$$
>  <sequence text>
CGTCCAAGGTCAAGGTCATTGAAAGAGACTCGAA

>  <PBM binding z-score>
5.26

$$$$

Would you mind giving PBM binding z-score for every sequence in the list below?
1. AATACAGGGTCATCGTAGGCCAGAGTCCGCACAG
2. TCTCGTTGGTCAAAGGTCACACACTCGAAATGCG
3. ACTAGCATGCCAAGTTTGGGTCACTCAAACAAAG

1. 4.52
2. 5.88
3. 0.606

Batch of 4 sequences: report PBM binding z-score for each.
1. GATCCAGGGTCAAGGCCAGAGTACGCGTATTGAT
2. CCTACTAGGCCACGAAAGGTCATTGATTCAGTGA
3. TCTTGTAGATAAATAGAGGTTAAGAAAGTGCGCT
4. CATACAGGGTCAGCGAGGCCAGAGTAGGGACGGC

3.91
4.32
1.9
2.27

I need PBM binding z-score for every entry listed below, if you could help.
1. ACTTACGGGTCAACGAGGTTATAGCGCGCGTATA
2. CCTACTGGGCCATCAGGTCATTGAAATCAACGTT
3. AGTCAAACTTCATCTAGGTAACGTAAGATATGCT
4. TCTATTAGTTGATTAGGGCAAACGAAACAGCGGA
5. CAAACTAGGCCAAAGGTCAAAGTCGAGCCAACCA

[4.5, 1.45, 0.127, 0.724, 5.75]
